# EXPERIMENT_NOTES: logP by HPLC retention time correlation
# Format: physicochemical
# SETUP_CONDITIONS: standardized reversed phase HPLC system; HPLC at pH 6.0
EXPERIMENTAL_ENDPOINT: chromatographic logP

Look up chromatographic logP: NC(=O)C(c1ccccc1)(c1ccc(F)cc1)c1ccc(OCCOCCOCCOCCNC(=S)Nc2ccc3c(c2)C(=O)OC32c3ccc(O)cc3Oc3cc(O)ccc32)cc1 (centres unmarked) [21b] 1.3

Look up chromatographic logP: NC(=O)C(c1ccccc1)(c1ccc(F)cc1)c1ccc(OCCOCCNC(=S)Nc2ccc3c(c2)C(=O)OC32c3ccc(O)cc3Oc3cc(O)ccc32)cc1 (centres unmarked) [21a] 1.5
